Target: GPR119 (Homo sapiens, UniProt Q8TDV5)
Sequence (Q8TDV5 whole entry): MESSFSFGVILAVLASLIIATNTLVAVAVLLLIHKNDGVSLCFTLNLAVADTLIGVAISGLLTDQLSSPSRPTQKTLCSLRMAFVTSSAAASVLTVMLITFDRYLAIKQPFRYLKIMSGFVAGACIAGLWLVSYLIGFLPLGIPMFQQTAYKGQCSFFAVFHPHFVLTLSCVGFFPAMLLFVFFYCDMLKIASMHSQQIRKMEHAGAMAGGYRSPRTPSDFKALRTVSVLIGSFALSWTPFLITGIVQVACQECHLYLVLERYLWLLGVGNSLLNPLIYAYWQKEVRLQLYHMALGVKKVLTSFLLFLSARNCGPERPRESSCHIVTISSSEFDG
Assay: Human Tet-Inducible cAMP Assay (hEC50, Table 1)
Conditions: human GPR119 agonist activity, cAMP
pEC50: −log10 of the molar value.
propertyName: pEC50

{"compound": "CS(=O)(=O)c1ccc(Nc2ncnc3c2cnn3C2CCN(C(=O)OCc3ccccc3)CC2)c(F)c1 [Example 12]", "pEC50": 6.69}

[1] CC(C)(C)OC(=O)N1CCC(n2nnc3c(Oc4ccc(S(C)(=O)=O)cc4)nccc32)CC1 [Example 2]
[2] CS(=O)(=O)c1ccc(Nc2ncnc3c2nnn3C2CCN(c3ncccn3)CC2)c(F)c1 [Example 8]
Task: Returns: the argument ( 1 or 2 ) having the larger pEC50. Reply with the label of the item you choose.
Result: 2
(2: 6.66, 1: 5.45)
